The reported measurements were obtained from patent US20230095520A1.

# System: MDA-MB-468 cells
# Protocol: MDA-MB-468 cell proliferation inhibition (MTT)
# Format: cell-based
# Measurement conditions: MDA-MB-468, compound concentration 100 nM, 72 hours
Kindly supply the reported Inhibition rate (%) values for the records listed here.
Numeric answer plus unit only.

Reference set (4 entries):
Smiles record: C=CC(=O)Nc1ccc(-c2cccc([C@H](C)C(=O)Nc3ncc(C4CC4)s3)c2)nn1
Inhibition rate (%): 74%
--
Smiles record: C=CC(=O)Nc1cncc(-c2cccc([C@H](C)C(=O)Nc3ncc(C4CC4)s3)c2)n1
Inhibition rate (%): 53%
--
Smiles record: C=CC(=O)Nc1ncc(-c2cccc([C@H](C)C(=O)Nc3ncc(C4CC4)s3)c2)cc1F
Inhibition rate (%): 75%
--
Smiles record: C=CC(=O)Nc1ncc(-c2cccc([C@H](C)C(=O)Nc3ncc(C4CC4)s3)c2)cn1
Inhibition rate (%): 74%

Shifting focus to the compound that follows.
Dear colleague, I am looking for the recorded Inhibition rate (%) of the following compound: `C=CC(=O)Nc1cnc(-c2cccc([C@H](C)C(=O)Nc3ncc(C4CC4)s3)c2)cn1` 72%
